# Lookup of reported TGI keyed by entry
Test system: SR leukemia
Experiment: NCI tumour cell line growth inhibition, 48 h
measurement.name: TGI (µM)

INSERT INTO measurements (compound, measurement_name, inequality_operator, readout_value) VALUES
  ('N/C(=N\c1nc2ccc([N+](=O)[O-])cc2s1)NC(=O)Nc1ccccc1Cl', 'TGI', '>', 100),
  ('CCNCCCn1c2c(c3cc(OC)c(OC)cc3c1=O)C(=O)c1cc3c(nc1-2)OCO3', 'TGI', '=', 2.39),
  ('COc1c(B(O)O)cc(F)cc1-c1nc2c(F)cc3[nH]ncc3c2c2c1CCCC2', 'TGI', '=', 11.4),
  ('CC1=C(c2cc(-c3ccc(Cl)cc3)c(C#N)c(N)n2)C(c2ccccc2)NC(=S)N1 (centres undefined)', 'TGI', '>', 48.7);

* * *

System: MDA-MB-468 breast
Assay: NCI tumour cell line growth inhibition, 48 h
measurement.name: log10 of TGI (log10 of the value in µM)

INSERT INTO results (compound, target_of_assay, readout_value) VALUES
  ('Cn1c(/C=C/[N+](=O)[O-])cc2ccccc21', 'MDA-MB-468 breast', 0.53),
  ('O=C(c1ccc(Cl)cc1)C1[C@H](c2ccc(Br)cc2)[C@@H](c2ccccc2)NC12C(=O)Nc1ccc(Br)cc12 (stereo partly drawn)', 'MDA-MB-468 breast', 0.89),
  ('COc1cc2c(cc1Nc1nc(Nc3cccc(F)c3C(N)=O)c3cc[nH]c3n1)N(C(=O)CN1CCN(C(C)C)CC1)CC2', 'MDA-MB-468 breast', 0.76),
  ('O=C(/C=C/c1csc(Br)n1)NO', 'MDA-MB-468 breast', 1.33),
  ('CC1=C2C(=C[C@@](C)(COS(C)(=O)=O)[C@@H]2O)C(=O)[C@](C)(O)C12CC2', 'MDA-MB-468 breast', -0.28),
  ('CN(C)c1ccc(/C=C/C2=[N+](C)c3ccccc3C2(C)C)cc1', 'MDA-MB-468 breast', 0.79),
  ('COc1cc(C(=O)Nc2cc(OC)c3ccn(C)c3c2)cc2c1C[C@]1(C)CC[C@@H](O)C(C)(C)[C@H]1O2', 'MDA-MB-468 breast', 0.48),
  ('COc1cc(/C=C/C(=O)N2CCN(C(=O)c3cc(OC)c(OC)c(OC)c3)CC2)ccc1OCCCOc1cc2c(cc1OC)C(=O)N1CCC[C@H]1C=N2', 'MDA-MB-468 breast', -0.47),
  ('CCCCCCCCn1ccc2cc(NC(=O)Cn3cc(CN4CCCCC4)nn3)ccc21', 'MDA-MB-468 breast', 0.57),
  ('O=c1oc2ccc(Br)cc2c(=O)n1-c1ccc(I)cc1F', 'MDA-MB-468 breast', 0.31),
  ('Oc1cc2ccccc2c(-c2c(O)c(O)cc3ccccc23)c1O', 'MDA-MB-468 breast', 1.24),
  ('CN1CCN(C(=O)Oc2cc3c(c4ccccc24)[C@H](CCl)CN3C(=O)c2cc3cc(OCCCN4CCC4)ccc3[nH]2)[C@H]2CSSC[C@H]21', 'MDA-MB-468 breast', -1.71),
  ('CSc1ccc(C(=O)Nc2ccc3nn(/C(C#N)=C/c4ccccn4)nc3c2)cc1', 'MDA-MB-468 breast', 0.13),
  ('COc1ccc(/C=C/C(=O)c2ccc(OC)c(OC)c2)cc1O', 'MDA-MB-468 breast', 1.29),
  ('COc1c(B(O)O)cc(F)cc1-c1nc2c(F)cc3[nH]ncc3c2c2c1CCCC2', 'MDA-MB-468 breast', 1.60);

* * *

System: HT29 colon
Assay: NCI tumour cell line growth inhibition, 48 h; in the data active = GI50 below about 0.43 µM; inactive = the rest
Outcome codes: yes = active, no = inactive

INSERT INTO assay_data (molecule, target_of_assay, category_label) VALUES
  ('CN1CCN(C(=O)Oc2cc3c(c4ccccc24)[C@H](CCl)CN3C(=O)c2cc3cc(OCCCN4CCC4)ccc3[nH]2)[C@H]2CSSC[C@H]21', 'HT29 colon', 'yes'),
  ('COC(=O)CNC(=O)COc1c(OC)c(OC)cc2oc(-c3cccc(C(=O)Nc4ccc(Cl)cc4)c3)cc(=O)c12', 'HT29 colon', 'no'),
  ('CC1=C(c2cc(-c3ccc(Cl)cc3)c(C#N)c(N)n2)C(c2ccccc2)NC(=S)N1 (centres undefined)', 'HT29 colon', 'no'),
  ('COc1c(B(O)O)cc(F)cc1-c1nc2c(F)cc3[nH]ncc3c2c2c1CCCC2', 'HT29 colon', 'no');

* * *

Test system: UO-31 renal
Assay: NCI tumour cell line growth inhibition, 48 h
measurement.name: GI50

INSERT INTO assay_data (molecular_string, target_of_assay, measurement_name, readout_value) VALUES
  ('N/C(=N\c1nc2ccc([N+](=O)[O-])cc2s1)NC(=O)Nc1ccccc1Cl', 'UO-31 renal', 'GI50', '3.19 µM'),
  ('COc1cc2c3c(n(CCCNC(C)C)c(=O)c2cc1OC)-c1nc2c(cc1C3=O)OCO2', 'UO-31 renal', 'GI50', '5.86 µM'),
  ('CSc1ccc(C(=O)Nc2ccc3nn(/C(C#N)=C/c4ccccn4)nc3c2)cc1', 'UO-31 renal', 'GI50', '0.712 µM'),
  ('COC(=O)CNC(=O)COc1c(OC)c(OC)cc2oc(-c3cccc(C(=O)Nc4ccc(Cl)cc4)c3)cc(=O)c12', 'UO-31 renal', 'GI50', '13.8 µM');

* * *

System: DU-145 prostate
Experiment: NCI tumour cell line growth inhibition, 48 h
Listing of entries alongside the reported GI50.
measurement.name: GI50

INSERT INTO assay_data (compound, readout_value) VALUES
  ('N/C(=N\c1nc2ccc([N+](=O)[O-])cc2s1)NC(=O)Nc1ccccc1Cl', '5.63 µM'),
  ('CSc1ccc(C(=O)Nc2ccc3nn(/C(C#N)=C/c4ccccn4)nc3c2)cc1', '1.25 µM'),
  ('Nc1nn2c(-c3cc4cc(Br)ccc4oc3=O)ccnc2c1N=Nc1ccc(Br)cc1', '3.24 µM'),
  ('COC(=O)CNC(=O)COc1c(OC)c(OC)cc2oc(-c3cccc(C(=O)Nc4ccc(Cl)cc4)c3)cc(=O)c12', '10.6 µM'),
  ('O=C(c1ccc(Cl)cc1)C1[C@H](c2ccc(Br)cc2)[C@@H](c2ccccc2)NC12C(=O)Nc1ccc(Br)cc12 (stereo not given in full)', '2.81 µM');

* * *

Parameter GI50: see the listing below.
Test system: MALME-3M melanoma
Assay: NCI tumour cell line growth inhibition, 48 h
measurement.name: GI50

INSERT INTO measurements (compound, readout_value) VALUES
  ('COc1c(B(O)O)cc(F)cc1-c1nc2c(F)cc3[nH]ncc3c2c2c1CCCC2', '14.8 µM'),
  ('O=C(c1ccc(Cl)cc1)C1[C@H](c2ccc(Br)cc2)[C@@H](c2ccccc2)NC12C(=O)Nc1ccc(Br)cc12 (some centres undefined)', '4.86 µM'),
  ('CCNCCCn1c2c(c3cc(OC)c(OC)cc3c1=O)C(=O)c1cc3c(nc1-2)OCO3', '1.35 µM'),
  ('CC1=C(c2cc(-c3ccc(Cl)cc3)c(C#N)c(N)n2)C(c2ccccc2)NC(=S)N1 (centres undefined)', '14 µM');

* * *

System: OVCAR-5 ovarian
Test: NCI tumour cell line growth inhibition, 48 h
Examples of molecules with documented TGI follow.
measurement.name: TGI

INSERT INTO measurements (molecule, readout_value) VALUES
  ('O=C(c1ccc(Cl)cc1)C1[C@H](c2ccc(Br)cc2)[C@@H](c2ccccc2)NC12C(=O)Nc1ccc(Br)cc12 (some centres undefined)', '9.88 µM'),
  ('N/C(=N\c1nc2ccc([N+](=O)[O-])cc2s1)NC(=O)Nc1ccccc1Cl', '> 100 µM'),
  ('CCNCCCn1c2c(c3cc(OC)c(OC)cc3c1=O)C(=O)c1cc3c(nc1-2)OCO3', '16.5 µM'),
  ('COC(=O)CNC(=O)COc1c(OC)c(OC)cc2oc(-c3cccc(C(=O)Nc4ccc(Cl)cc4)c3)cc(=O)c12', '40.1 µM');

* * *

Tested on: SF-295 CNS
Experiment: NCI tumour cell line growth inhibition, 48 h; in the data active = GI50 below about 0.43 µM; inactive = the rest
Possible outcomes: active, inactive

INSERT INTO results (compound, category_label) VALUES
  ('CCNCCCn1c2c(c3cc(OC)c(OC)cc3c1=O)C(=O)c1cc3c(nc1-2)OCO3', 'active'),
  ('O=C(c1ccc(Cl)cc1)C1[C@H](c2ccc(Br)cc2)[C@@H](c2ccccc2)NC12C(=O)Nc1ccc(Br)cc12 (stereo not given in full)', 'inactive'),
  ('Nc1nn2c(-c3cc4cc(Br)ccc4oc3=O)ccnc2c1N=Nc1ccc(Br)cc1', 'inactive'),
  ('CSc1ccc(C(=O)Nc2ccc3nn(/C(C#N)=C/c4ccccn4)nc3c2)cc1', 'inactive'),
  ('CC1=C(c2cc(-c3ccc(Cl)cc3)c(C#N)c(N)n2)C(c2ccccc2)NC(=S)N1 (stereo not given)', 'inactive');
